Reference for the values: patent US20230399312A1

System: TGF-β-stimulated SMAD3 phosphorylation in BEAS-2B cells
test-description: Cellular ALK5 potency assay, inhibition of TGF-β stimulated pSMAD3 formation in BEAS-2B cells
Format: cell-based
conditions-used: Homo sapiens, pSMAD3, TGF-β 10 ng/mL, read-out: BEAS2B pIC50 (converted)
Recorded measurements of IC50, one per entry

Sample answers from the record:
>  <molecule>
Cc1cccc(-c2nccc(Nc3ccnc(Nc4ccc(N5CCNCC5CC(=O)OCC(C)C)cc4)n3)n2)n1 (stereo not shown)

>  <subject-of-test>
TGF-β-stimulated SMAD3 phosphorylation in BEAS-2B cells

>  <IC50>
25.1 to 158 nM

$$$$
>  <molecule>
Cc1cccc(-c2nccc(Nc3ccnc(Nc4csc(NC(=O)C5CCNCC5)c4)n3)n2)n1

>  <subject-of-test>
TGF-β-stimulated SMAD3 phosphorylation in BEAS-2B cells

>  <IC50>
≤ 20 nM

$$$$
>  <molecule>
Cc1cccc(-c2nccc(Nc3ccnc(Nc4ccc(NC(=O)N5CCN(C(C)C)CC5)cc4)n3)n2)n1

>  <subject-of-test>
TGF-β-stimulated SMAD3 phosphorylation in BEAS-2B cells

>  <IC50>
25.1 to 158 nM

$$$$

Turning now to a further molecule:
Per the reported TGF-β-stimulated SMAD3 phosphorylation in BEAS-2B cells data, Cc1cccc(-c2nccc(Nc3ccnc(Nc4ccc(NS(=O)(=O)N5CCN(C)CC5)cc4)n3)n2)n1 has IC50 of 25.1 to 158 nM
